# protocol_summary: inhibitors of TNFa-induced NFkB p65 translocation, primary screen, imaging, HUVEC, MLSMR starter and 10KST1 sets (AID 438);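 note: compound added about 3h40 before a 20 min TNFalpha stimulation; signal is the nuclear over cytoplasmic p65 intensity ratio per well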
# conditions_used: HUVEC TNFa-induced p65 nuclear translocation; at 2 µM, stronger effect = higher value, 0% TNFa-plus-vehicle, 100% no-TNFa wells
quantity_name: inhibition (%)
Field: numeric (%). Do not append units.

Solved entries:
CCC(C(=O)Nc1ccccc1C(=O)N1CCCC1)N1C(=O)c2ccccc2C1=O (stereo unspecified) | 16.8
Cc1cnc(C(=O)Nc2ccc(N3CCOCC3)cc2)cn1 | 3
Cc1ccc(NC(=O)COS(=O)c2ccc(C)cc2)cc1 (stereo unspecified) | 5.8
Cc1nc2c(-c3ccccc3)c(C)[nH]n2c(=O)c1Cl | -8.3
c1ccc(-c2cn3cccnc3n2)cc1 | -0.7

Sample O=C(CSc1ccccc1C(=O)NCCCN1CCCC1=O)NCc1ccco1 — what was its inhibition? 3.8

====

Entries and their NADPH fluorescence slope
# target: Voltage-gated potassium channel subunit beta-2 (Rattus norvegicus)
# protocol_summary: enhancers of rat Kvbeta2 NADPH turnover – biochemical, NADPH fluorescence, primary screen (AID 623);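 note: fluorescence intensity change per second fitted from 20 to 320 s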
# conditions_used: Recombinant KvBeta, NADPH fluorescence decrease slope, 10 min; at 10 µM; stronger effect = lower value
Enter a number only.

CSc1ccccc1NC(=O)CN(Cc1ccccc1)S(C)(=O)=O | -3.2e-05
CCN1CCN(C(=O)c2cc3c(=O)n(C)c4ccccc4c3n2C)CC1 | -1.9e-05
O=S(=O)(Cc1ccc(Cl)cc1)Nc1ccc2c(c1)OCO2 | -5.8e-05
CN(C)S(=O)(=O)Nc1ccccc1C(N)=O | -3.8e-05
O=C(NC1CCCCC1)C(c1ccc(Cl)cc1)N(C(=O)c1cnccn1)c1ccc2c(c1)OCO2 (stereo not drawn) | -3.7e-05

Endpoint output: NADPH fluorescence slope of O=C(NCc1ccccc1)N[C@@H](Cc1ccccc1)C(=O)O . Value? -4.1e-05

Recorded NADPH fluorescence slope of CCn1c(SCC(=O)N2c3ccccc3CCc3ccccc32)nc2c1c(=O)n(C)c(=O)n2C , please. -8.1e-05

Which NADPH fluorescence slope is listed for COc1ccc(S(=O)(=O)NCCOc2ccccc2)cc1OC ? -3.7e-05

Entry O=C(Nc1nc(-c2ccccc2)cs1)C1CCCO1 (stereo not drawn) : reported NADPH fluorescence slope = ? -5.9e-05

Reported NADPH fluorescence slope for O=C(C(Cc1ccccc1)n1cccc1)N1CCCCCC1 (stereo not drawn) : what is it? -1.7e-05

Any idea what NADPH fluorescence slope was measured for O=C(COc1ccccc1)Nc1ccccc1N1CCN(c2ccccc2)CC1 ? -3.5e-05

Record request: NADPH fluorescence slope value, item CCN(CC)C(=O)COc1ccc2oc(C)c(C(=O)OC(C)C)c2c1 3.2e-05

Tell me the measured NADPH fluorescence slope of O=S(=O)(c1ccc(S(=O)(=O)N(Cc2ccco2)Cc2ccccc2Cl)cc1)N1CCCC1 , please. -3.1e-05

What does the data say about its NADPH fluorescence slope? Entry: CC(=O)N1CCC2(CC1)CC(=O)c1cc(OCC(=O)NCc3ccc(C)cc3)ccc1O2 -3.2e-06

State the recorded NADPH fluorescence slope for this entry: Nc1nc(CSCc2ccccc2)nc(N2CCOCC2)n1 -1.3e-05

====

# inhibition values compiled below
# protocol_summary: endothelial E-selectin expression blockers – imaging, HUVEC, immunofluorescence, MLSMR starter and 10KST1 sets, primary screen (AID 487);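 note: signal is fraction of cell area covered by stained E-selectin grains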
# conditions_used: HUVEC TNFalpha-induced E-selectin immunofluorescence imaging, at 2 µM; stronger effect = higher value
Active and inactive are the calls of the source.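 Rule for the calls: active = visually confirmed hit in the image check and inhibition above 20%; inconclusive = visually confirmed hit but inhibition not above 20%; inactive = no visual hit in the image check.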

Before answering, review these 2 worked examples.
Cc1ccc(S(=O)(=O)N2CCN(C(=O)CSc3nc4ccccc4c(=O)[nH]3)CC2)c(C)c1 | -13.1% (inactive)
COc1cc(N=c2ssnc2Cl)cc(OC)c1 | 4.2% (inactive)

Return reported inhibition; argument: COc1ccc2ccccc2c1CN1CCCC(CO)C1 (centres undefined) 53% (inactive)

====

# protocol_summary: TLR3 IRF3 reporter activation blockers – cell-based, poly I:C stimulus, luciferase, 10K MLSCN set, primary screen (AID 602277)
# conditions_used: HEK293-TLR3 RL24 IRF3 luciferase reporter, at 10 µM, stronger effect = higher value
quantity_name: inhibition (%)
Kindly provide the numeric value in % only, without the unit symbol.

Worked cases, answers included:
Cc1cc(NC(=O)CCC(=O)N(CC2CCCO2)C(C(=O)NC2CCCC2)c2ccccc2C)no1 (stereo not given) | 21.7
C=CCn1c(Cc2csc(N)n2)nnc1SCC(=O)OCC | 10

What inhibition value was documented for this compound, CC(C)C(C(=O)Nc1ccc2c(c1)OCO2)N1C(=O)c2ccccc2C1=O (stereo not given) ? 25.5

Name the reported inhibition value associated with the compound COc1ccc(C2CC(c3ccc(C)cc3)Nc3ncnn32)cc1 (stereo not given) 16.4

Quick one: inhibition for COCCCN1C(=O)C(=O)/C(=C(/O)c2ccc(OC)cc2)C1c1ccc(O)c(OC)c1 (stereo not given) ? -6.14

Value lookup for inhibition; key = CCC(C(=O)Nc1ccccc1C(=O)N1CCCC1)N1C(=O)c2ccccc2C1=O (stereo not given) 15.4

Record request: inhibition value, item CCn1ncc(C2=NOC(C(=O)Nc3ccc4c(c3)OCO4)C2)c1C (stereo not given) -34

Name the recorded inhibition for O=C(CSc1nnc(Cc2ccccc2)n1C1CCCCC1)N1CCOCC1 . -20.2

Report inhibition for Cc1ccc(S(=O)(=O)N(CC(=O)N2CCOCC2)CC(=O)N2CCOCC2)cc1 please. 27.1

Entry under review: CCC(C)OC(=O)c1[nH]c2c(c1C)C(=O)CC(c1ccc(N(C)C)cc1)C2 (stereo not given) . Reported inhibition? -143

====

# protocol_summary: blockers of RIG-like receptor reporter activation – cell-based, Sendai virus stimulus, luciferase, 10K MLSCN set, TLR/RLR signaling modifier project, primary screen (AID 602276);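 note: firefly luciferase from ISG56 promoter only with Renilla not read in this screen; 0% = Sendai virus plus DMSO and 100% = medium plus DMSO without virus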
# conditions_used: HEK293 RL24 IRF3 luciferase reporter, at 10 µM, stronger effect = higher value
The following compounds are listed with their measured inhibition values.
Report as a plain number; the unit % is understood.

The cases that follow already have their inhibition on record.
Cc1ccc(S(=O)(=O)N2CCN(C(=O)CSc3nnnn3C)C2)cc1 | 6.82
CC(=O)N1CCN(S(=O)(=O)c2ccc(S(=O)(=O)NC3CC3)cc2)CC1 | 18.5

Then there is this compound:
What value of inhibition has been recorded for this entry: O=C(c1ccco1)N1CCN(c2nc(C(F)(F)F)nc3c2nnn3Cc2ccccc2)CC1 3.06

====

# target: Voltage-gated potassium channel subunit beta-2 (Rattus norvegicus) (UniProt P62483)
# Sequence (P62483 whole entry, looked up): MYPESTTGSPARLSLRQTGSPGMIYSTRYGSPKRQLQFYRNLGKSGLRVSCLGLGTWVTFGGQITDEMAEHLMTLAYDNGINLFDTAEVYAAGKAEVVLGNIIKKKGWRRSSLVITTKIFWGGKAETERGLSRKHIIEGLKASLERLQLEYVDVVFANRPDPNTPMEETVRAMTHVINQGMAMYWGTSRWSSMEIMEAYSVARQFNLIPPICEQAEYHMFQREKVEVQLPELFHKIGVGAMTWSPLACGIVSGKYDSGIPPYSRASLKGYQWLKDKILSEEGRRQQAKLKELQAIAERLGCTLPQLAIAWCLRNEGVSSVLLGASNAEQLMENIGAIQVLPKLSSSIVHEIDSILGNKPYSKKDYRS
# protocol_summary: inhibitors of rat Kvbeta2 reductase activity – biochemical, NADPH fluorescence, primary screen (AID 622);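 note: slope of raw intensity against log time taken from 70 to 1610 s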
# conditions_used: recombinant KvBeta, 4-cyanobenzaldehyde reduction, at 10 µM, stronger effect = higher value
Decide using fluorescence slope: a value greater than or equal to -0.5 is yes, a smaller one is no.

Some solved cases for reference:
CCOCCCNC(=O)C1CCC(=O)N1CCc1ccccc1 (stereo unspecified) | no
COc1cc(OC)cc(-c2nc3cc(C)ccc3o2)c1 | no
COc1ccccc1NS(=O)(=O)c1ccc(OC)c(OC)c1 | yes
COc1cccc(C(=O)Nc2c(C(N)=O)oc3ccccc23)c1 | no

Pending compound:
Is fluorescence slope at least -0.5? Consider CCOc1ccc(/C=N/n2cnnc2)cc1 yes

====

# target: Alpha-2C adrenergic receptor (Homo sapiens) (UniProt P18825)
# Sequence (P18825 whole entry, looked up): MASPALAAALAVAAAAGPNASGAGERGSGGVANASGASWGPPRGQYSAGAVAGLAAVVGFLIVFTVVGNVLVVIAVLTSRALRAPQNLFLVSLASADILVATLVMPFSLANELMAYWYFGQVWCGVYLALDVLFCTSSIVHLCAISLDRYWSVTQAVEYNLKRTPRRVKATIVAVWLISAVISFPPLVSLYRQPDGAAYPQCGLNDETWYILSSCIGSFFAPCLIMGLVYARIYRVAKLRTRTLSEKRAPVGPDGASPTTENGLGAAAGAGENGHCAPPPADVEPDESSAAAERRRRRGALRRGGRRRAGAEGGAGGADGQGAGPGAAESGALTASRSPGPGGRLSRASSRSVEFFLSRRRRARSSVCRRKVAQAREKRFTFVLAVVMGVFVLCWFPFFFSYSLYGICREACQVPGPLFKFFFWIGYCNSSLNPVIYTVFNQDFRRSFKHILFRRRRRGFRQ
# protocol_summary: compounds altering alpha2C-coupled GIRK flux – cell-based, HEK293 alpha2C/GIRK1/2, thallium flux, primary screen (AID 624);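 note: slope of fluorescence ratio to pre-addition baseline per second over 15 to 24 s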
# conditions_used: thallium flux BTC fluorescence, at 10 µM, actives lie on both sides
quantity_name: slope
Just the number.

CC(=O)c1cccc(NC(=O)CCNS(=O)(=O)c2cccc3nsnc23)c1 | 0.00543
CCCNC(=O)N1CCN(S(=O)(=O)c2ccc(C)c(C)c2)CC1 | 0.00557
Cn1c(=O)oc2cc(S(=O)(=O)N3CCCC(C(=O)NCC4COc5ccccc5O4)C3)ccc21 (configuration not stated) | 0.00726

# query: slope of entry Cc1sc2ncnc(Oc3ccc(-n4ccnc4)cc3)c2c1C 0.00491

Please give the measured slope for this compound: CC(=O)N1CCc2c(sc(NC(=O)c3ccc(S(=O)(=O)N(C)C)cc3)c2C#N)C1 0.0064

Which slope is reported for this compound? O=C(CCCn1c(=O)[nH]c2ccsc2c1=O)N1CCN(c2ccccn2)CC1 0.00451

If you can, please state the reported slope value of Cc1cc(C(=O)Cn2cncn2)c(C)n1CCc1ccc(F)cc1 . 0.00641

Item under review: O=C(CSc1nnc(-c2ccccc2)o1)N1CCc2ccccc2C1 . Reported slope? 0.00577

====

Here the recorded inhibition of aggregation is given for each entry.
# protocol_summary: reduction of polyQ htt aggregates in cells – imaging, exon1htt(103Q)mCFP cells, high-content imaging, primary screen (AID 483);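 note: compound exposure lasted 3 days before fixation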
# conditions_used: exon1htt(103Q)mCFP cell line, aggregate imaging, at 2 µM; stronger effect = higher value
Form entry: value (%) — number only.

Solved entries:
CCCNC(=O)C1CCN(S(=O)(=O)c2ccc3nc4c(c(C(=O)O)c3c2)CCCCC4)CC1 | -1.8
C=CCOc1ccc(CN(C)CC(=O)N(CC(C)C)c2c(N)n(CC(C)C)c(=O)[nH]c2=O)cc1 | -8.7
CCC1CCCCN1CCCNC(=O)c1ccc(CS(=O)(=O)Cc2ccccc2F)o1 (stereo unspecified) | 7.5
CCOc1nc(-c2ccccc2)ccc1-c1noc(-c2cccnc2)n1 | -0.3
CCCCN1CN(S(=O)(=O)c2cccs2)c2nc3ccccc3nc21 | 0.5

Looking for the measured inhibition of aggregation of COc1ccccc1NC(=O)N(Cc1ccccc1)c1ccccn1 , can you help? -5.9

Can you look up the measured inhibition of aggregation of O=C(CN1C(=O)CCSc2ccccc21)Nc1ccc(F)cc1 for me? -6

Query (compound): Cc1sc2ncnc(OCC(=O)N3CCN(S(=O)(=O)c4ccccc4)CC3)c2c1C ; field requested: inhibition of aggregation 11.8

Quick one: inhibition of aggregation for CS(=O)(=O)N1CCN(C(=O)c2ccc(-c3ccccc3)cc2)CC1 ? -11

Which inhibition of aggregation value belongs to CCCCSc1nc(CCC)cc(=O)[nH]1 ? -4

What measured inhibition of aggregation goes with O=C(c1cnc2sccn2c1=O)N1CCc2ccccc2C1 ? 4.4

Values compiled from PubChem BioAssay.
